- Tested on: 4T1
- method-description: Anticancer activity against mouse 4T1 cells assessed as inhibition of cell proliferation measured after 72 hrs by MTT assay
- Format: functional, cell-based
- experimental-setup: 4T1, 72 h
Consider the following compounds and their measured IC50 readings.
reported-endpoint: IC50 (nM)

>  <compound>
COc1c(C)cnc(Cn2cnc3c(Cl)nc(N)nc32)c1C [BIIB021]

>  <system-tested>
4T1

>  <quantitative-readout>
550

$$$$
>  <compound>
COc1c(C)cnc(Cn2cc(C#CCCNc3cccc4c3C(=O)N(C3CCC(=O)NC3=O)C4=O)c3c(Cl)nc(N)nc32)c1C (configuration not stated)

>  <system-tested>
4T1

>  <quantitative-readout>
610

$$$$

Data provenance: ChEMBL document CHEMBL5154662
